Hey, just so you know, these numbers are from patent US8410085B2.

test target: UniProtKB O00482
Sequence (O00482 whole entry): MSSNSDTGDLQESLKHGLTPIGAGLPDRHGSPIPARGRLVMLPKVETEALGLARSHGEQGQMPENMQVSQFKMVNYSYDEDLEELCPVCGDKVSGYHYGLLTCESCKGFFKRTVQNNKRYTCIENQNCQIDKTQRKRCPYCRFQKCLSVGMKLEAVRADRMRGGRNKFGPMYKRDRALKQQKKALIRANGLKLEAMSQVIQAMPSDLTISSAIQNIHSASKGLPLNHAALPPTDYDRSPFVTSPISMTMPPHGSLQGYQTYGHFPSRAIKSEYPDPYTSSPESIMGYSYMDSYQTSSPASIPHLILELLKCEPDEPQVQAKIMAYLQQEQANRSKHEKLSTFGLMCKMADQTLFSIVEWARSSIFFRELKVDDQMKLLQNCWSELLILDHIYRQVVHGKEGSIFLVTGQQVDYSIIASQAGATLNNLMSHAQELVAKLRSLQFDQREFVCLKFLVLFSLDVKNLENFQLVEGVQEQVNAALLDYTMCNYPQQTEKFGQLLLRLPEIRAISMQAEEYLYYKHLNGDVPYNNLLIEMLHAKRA
protocol summary: human LRH-1 transactivation, HeLa cotransfection with LRH-1/SF-1 response element luciferase reporter
Format: cell-based
Design: expressed in transfected cells; host or cells: HeLa (A1, A3)
assay setup: HeLa cells, 100 μM
Procedure: Controls (vector only and no lipid) are as indicated. […] Cells were treated with 100 μM of the indicated PCs and luciferase expression (RLU, relative light units) was normalized using an internal β-galactosidase control. vec, empty vector; −, ethanol solvent control. HeLa cells were transfected with an hLRH-1 expression vector along with mSHP1080-Luc reporter. […] Oct4-PPmut Luc is identical to Oct4-PP Luc except for the insertion of point mutations in the DR0 element. […]
measured attribute: LRH-1 transactivation (luciferase)

- compound: "CCCCCCCCCC(=O)OC[C@H](COP(=O)(O)OCCN)OC(=O)CCCCCCCCC [C10:0-10:0 PE]"
  test target: "UniProtKB O00482"
  measured attribute: "LRH-1 transactivation (luciferase)"
  data value: "no activation"
- compound: "CCCCCCCCCCCC(=O)OC[C@H](COP(=O)(O)OCCN)OC(=O)CCCCCCCCCCC [C12:0-12:0 PE]"
  test target: "UniProtKB O00482"
  measured attribute: "LRH-1 transactivation (luciferase)"
  data value: "no activation"
- compound: "CCCCCCCCCCCCCC(=O)OC[C@H](COP(=O)(O)OCCN)OC(=O)CCCCCCCCCCCCC [C14:0-C14:0 PE]"
  test target: "UniProtKB O00482"
  measured attribute: "LRH-1 transactivation (luciferase)"
  data value: "no activation"

* * *

Test system: hepatic expression of Cyp7A1, Cyp8B1, mSR-BI, SHP
protocol summary: hepatic gene expression (Q-PCR) in wild type mice after oral gavage
Format: in vivo, mouse
assay setup: 100 mg/kg oral, five times over three days

- compound: "CCCCCCCCCCCC(=O)OCC(COP(=O)([O-])OCC[N+](C)(C)C)OC(=O)CCCCCCCCCCC (stereo not shown) [DLPC, dilauroylphosphatidylcholine]"
  hepatic expression of SHP: "repressed"
- compound: "CCCCCCCCCCC(=O)OCC(COP(=O)([O-])OCC[N+](C)(C)C)OC(=O)CCCCCCCCCC (stereo not shown) [DUPC, diundecanoylphosphatidylcholine]"
  hepatic expression of SHP: "repressed"

* * *

System: hepatic expression of Cyp7A1, Cyp8B1, mSR-BI, SHP
protocol summary: hepatic gene expression (Q-PCR) in wild type mice after oral gavage
Type: in vivo, mouse
assay setup: 100 mg/kg oral, five times over three days
measured attribute: hepatic expression of mSR-BI

- compound: "CCCCCCCCCCC(=O)OCC(COP(=O)([O-])OCC[N+](C)(C)C)OC(=O)CCCCCCCCCC (stereo not shown) [DUPC, diundecanoylphosphatidylcholine]"
  measured attribute: "hepatic expression of mSR-BI"
  data value: "significantly induced"
- compound: "CCCCCCCCCCCC(=O)OCC(COP(=O)([O-])OCC[N+](C)(C)C)OC(=O)CCCCCCCCCCC (stereo not shown) [DLPC, dilauroylphosphatidylcholine]"
  measured attribute: "hepatic expression of mSR-BI"
  data value: "significantly induced"
